# System: MRSA
# run-description: MIC by tube dilution and Kull synergy index against MRSA
# Format: cell-based, Staphylococcus aureus
# test-context: Staphylococcus aureus, MRSA, read-out: 2-MIC-
measurement-kind: MIC (µg/mL)

compound: O=C(/C=C/C=C/c1ccc2c(c1)OCO2)N1CCCCC1
endpoint-value: 1000
--
compound: C=CCN=C=S [Allyl isothiocyanate, allyl isothiocyanate]
endpoint-value: 1000
--
compound: [O-][n+]1ccccc1S
endpoint-value: 0.79
--
compound: CC(=O)c1c(O)c(C)c(O)c2c1OC1=CC(=O)C(C(C)=O)C(=O)C12C (stereo not shown)
endpoint-value: 6.25
